# Tested on: Acinetobacter baumannii
# testMethodNotes: Antibacterial activity against Acinetobacter baumannii 139
# Format: functional
measurementKind: MIC (µg/mL)
Numeric only. Scale: µg/mL

See these solved cases before continuing.
>  <structureNotation>
CCCCCCCN1CCN(c2c(F)cc3c(=O)c(C(=O)O)cn(C4CC4)c3c2OC)CC1

>  <unitsSymbol>
µg/mL

>  <resultValue>
4

$$$$
>  <structureNotation>
CCCCCCCCN1CCN(c2c(F)cc3c(=O)c(C(=O)O)cn(C4CC4)c3c2OC)CC1

>  <unitsSymbol>
µg/mL

>  <resultValue>
16

$$$$
>  <structureNotation>
COc1c(N2C[C@@H]3CCCN[C@@H]3C2)c(F)cc2c(=O)c(C(=O)O)cn(C3CC3)c12

>  <unitsSymbol>
µg/mL

>  <resultValue>
2

$$$$

Now turn to the next compound.
-- ask Please look up its MIC: `CCCCCCCCCN1CCN(c2c(F)cc3c(=O)c(C(=O)O)cn(C4CC4)c3c2OC)CC1`
-- reply 64

###

Parameter: MIC. Scope: all listed entries.
# Tested on: Pseudomonas aeruginosa
# testMethodNotes: Antibacterial activity against Pseudomonas aeruginosa 142
# Format: functional

>  <structureNotation>
CCCCCCCCCCCCN1CCN(c2c(F)cc3c(=O)c(C(=O)O)cn(C4CC4)c3c2OC)CC1

>  <measurementKind>
MIC

>  <resultValue>
> 64 µg/mL

$$$$

-- ask Please look up its MIC: `CCCCCCCN1CCN(c2c(F)cc3c(=O)c(C(=O)O)cn(C4CC4)c3c2OC)CC1`
-- reply > 64 µg/mL

-- ask Please look up its MIC: `COc1c(N2C[C@@H]3CCCN[C@@H]3C2)c(F)cc2c(=O)c(C(=O)O)cn(C3CC3)c12`
-- reply 8 µg/mL

-- ask Please look up its MIC: `CCCCCCCCCCN1CCN(c2c(F)cc3c(=O)c(C(=O)O)cn(C4CC4)c3c2OC)CC1`
-- reply > 64 µg/mL

-- ask Please look up its MIC: `O=C(O)c1cn(C2CC2)c2cc(N3CCNCC3)c(F)cc2c1=O`
-- reply > 32 µg/mL

###

# Tested on: Neisseria gonorrhoeae
# testMethodNotes: Antibacterial activity against Neisseria gonorrhoeae WHO A
# Assay type: functional
Parameter: MIC. Scope: all listed entries.
Numeric only. Scale: µg/mL

See these solved cases before continuing.
>  <compound>
O=C(O)c1cn(C2CC2)c2cc(N3CCNCC3)c(F)cc2c1=O [CIPROFLOXACIN]

>  <testedTarget>
Neisseria gonorrhoeae

>  <measurementKind>
MIC

>  <resultValue>
0.002

$$$$
>  <compound>
CCCCCCCCCCN1CCN(c2c(F)cc3c(=O)c(C(=O)O)cn(C4CC4)c3c2OC)CC1

>  <testedTarget>
Neisseria gonorrhoeae

>  <measurementKind>
MIC

>  <resultValue>
0.5

$$$$
>  <compound>
CCCCCCCCN1CCN(c2c(F)cc3c(=O)c(C(=O)O)cn(C4CC4)c3c2OC)CC1

>  <testedTarget>
Neisseria gonorrhoeae

>  <measurementKind>
MIC

>  <resultValue>
0.03

$$$$

Now turn to the next compound.
-- ask Please look up its MIC: COc1c(N2C[C@@H]3CCCN[C@@H]3C2)c(F)cc2c(=O)c(C(=O)O)cn(C3CC3)c12 [MOXIFLOXACIN]
-- reply 0.004

###

# System: Streptococcus pneumoniae
# testMethodNotes: Antibacterial activity against Streptococcus pneumoniae ATCC 49169
# Assay type: functional
Parameter: MIC. Scope: all listed entries.
Numeric only. Scale: µg/mL

>  <compound>
CCCCC(CC)CN1CCN(c2c(F)cc3c(=O)c(C(=O)O)cn(C4CC4)c3c2OC)CC1 (stereo unspecified)

>  <unitsSymbol>
µg/mL

>  <resultValue>
2

$$$$
>  <compound>
COc1c(N2C[C@@H]3CCCN[C@@H]3C2)c(F)cc2c(=O)c(C(=O)O)cn(C3CC3)c12 [MOXIFLOXACIN]

>  <unitsSymbol>
µg/mL

>  <resultValue>
0.06

$$$$

-- ask Please look up its MIC: `CCCCCCCCCN1CCN(c2c(F)cc3c(=O)c(C(=O)O)cn(C4CC4)c3c2OC)CC1`
-- reply 2

-- ask Please look up its MIC: `CCCCCCCC(=O)N1CCN(c2c(F)cc3c(=O)c(C(=O)O)cn(C4CC4)c3c2OC)CC1`
-- reply 0.5

###

Parameter: MIC. Scope: all listed entries.
# Test system: Neisseria gonorrhoeae
# testMethodNotes: Antibacterial activity against Neisseria gonorrhoeae WHO E
# Type: functional
Numeric only. Scale: µg/mL

-- ask For Neisseria gonorrhoeae, provide MIC of `O=C(O)c1cn(C2CC2)c2cc(N3CCNCC3)c(F)cc2c1=O` please.
-- reply 0.002

-- ask For Neisseria gonorrhoeae, provide MIC of `CCCCCCCCN1CCN(c2c(F)cc3c(=O)c(C(=O)O)cn(C4CC4)c3c2OC)CC1` please.
-- reply 0.03

-- ask For Neisseria gonorrhoeae, provide MIC of `CCCCCCCCCCN1CCN(c2c(F)cc3c(=O)c(C(=O)O)cn(C4CC4)c3c2OC)CC1` please.
-- reply 0.25

-- ask For Neisseria gonorrhoeae, provide MIC of `COc1c(N2C[C@@H]3CCCN[C@@H]3C2)c(F)cc2c(=O)c(C(=O)O)cn(C3CC3)c12` please.
-- reply 0.004

###

# Tested on: Neisseria gonorrhoeae
# testMethodNotes: Antibacterial activity against Neisseria gonorrhoeae WHO G
# Format: functional
measurementKind: MIC (µg/mL)
Numeric only. Scale: µg/mL

See these solved cases before continuing.
>  <structureNotation>
CCCCCCCCCCN1CCN(c2c(F)cc3c(=O)c(C(=O)O)cn(C4CC4)c3c2OC)CC1

>  <unitsSymbol>
µg/mL

>  <resultValue>
8

$$$$
>  <structureNotation>
O=C(O)c1cn(C2CC2)c2cc(N3CCNCC3)c(F)cc2c1=O

>  <unitsSymbol>
µg/mL

>  <resultValue>
0.125

$$$$
>  <structureNotation>
COc1c(N2C[C@@H]3CCCN[C@@H]3C2)c(F)cc2c(=O)c(C(=O)O)cn(C3CC3)c12

>  <unitsSymbol>
µg/mL

>  <resultValue>
0.03

$$$$

Now turn to the next compound.
-- ask Please look up its MIC: `CCCCCCCCN1CCN(c2c(F)cc3c(=O)c(C(=O)O)cn(C4CC4)c3c2OC)CC1`
-- reply 0.25

###

# Test system: Acinetobacter baumannii
# testMethodNotes: Antibacterial activity against Acinetobacter baumannii 139
# Assay type: functional
Parameter: MIC. Scope: all listed entries.

See these solved cases before continuing.
>  <compound>
CCCCCCCCCCN1CCN(c2c(F)cc3c(=O)c(C(=O)O)cn(C4CC4)c3c2OC)CC1

>  <measurementKind>
MIC

>  <resultValue>
≥ 64 µg/mL

$$$$
>  <compound>
CCCCCCCCCCCN1CCN(c2c(F)cc3c(=O)c(C(=O)O)cn(C4CC4)c3c2OC)CC1

>  <measurementKind>
MIC

>  <resultValue>
≥ 64 µg/mL

$$$$
>  <compound>
O=C(O)c1cn(C2CC2)c2cc(N3CCNCC3)c(F)cc2c1=O [CIPROFLOXACIN]

>  <measurementKind>
MIC

>  <resultValue>
> 32 µg/mL

$$$$
>  <compound>
CCCCCCCCCCCCN1CCN(c2c(F)cc3c(=O)c(C(=O)O)cn(C4CC4)c3c2OC)CC1

>  <measurementKind>
MIC

>  <resultValue>
≥ 64 µg/mL

$$$$

-- ask Please look up its MIC: `CCCCCCCCCCCCCCN1CCN(c2c(F)cc3c(=O)c(C(=O)O)cn(C4CC4)c3c2OC)CC1`
-- reply ≥ 64 µg/mL

###

# System: Pseudomonas aeruginosa
# testMethodNotes: Antibacterial activity against Pseudomonas aeruginosa 142
# Type: functional
Parameter: MIC. Scope: all listed entries.

-- ask Please look up its MIC: `CCCCCCCCCCCN1CCN(c2c(F)cc3c(=O)c(C(=O)O)cn(C4CC4)c3c2OC)CC1`
-- reply > 64 µg/mL

-- ask Please look up its MIC: `CCCCCCCCCCCCCCN1CCN(c2c(F)cc3c(=O)c(C(=O)O)cn(C4CC4)c3c2OC)CC1`
-- reply > 64 µg/mL

-- ask Please look up its MIC: `CCCCCCCCN1CCN(c2c(F)cc3c(=O)c(C(=O)O)cn(C4CC4)c3c2OC)CC1`
-- reply > 64 µg/mL

-- ask Please look up its MIC: `CCCCCCCCCN1CCN(c2c(F)cc3c(=O)c(C(=O)O)cn(C4CC4)c3c2OC)CC1`
-- reply ≥ 64 µg/mL

###

Parameter: MIC. Scope: all listed entries.
# Tested on: Streptococcus pneumoniae
# testMethodNotes: Antibacterial activity against Streptococcus pneumoniae ATCC 49169
# Type: functional
Numeric only. Scale: µg/mL

See these solved cases before continuing.
>  <structureNotation>
CCCCCCCCCCCN1CCN(c2c(F)cc3c(=O)c(C(=O)O)cn(C4CC4)c3c2OC)CC1

>  <testedTarget>
Streptococcus pneumoniae

>  <resultValue>
8

$$$$
>  <structureNotation>
CCCCCCCCCCCCN1CCN(c2c(F)cc3c(=O)c(C(=O)O)cn(C4CC4)c3c2OC)CC1

>  <testedTarget>
Streptococcus pneumoniae

>  <resultValue>
4

$$$$
>  <structureNotation>
CCCCCCCCCCCCCCN1CCN(c2c(F)cc3c(=O)c(C(=O)O)cn(C4CC4)c3c2OC)CC1

>  <testedTarget>
Streptococcus pneumoniae

>  <resultValue>
8

$$$$
>  <structureNotation>
CCOCCOCCN1CCN(c2c(F)cc3c(=O)c(C(=O)O)cn(C4CC4)c3c2OC)CC1

>  <testedTarget>
Streptococcus pneumoniae

>  <resultValue>
1

$$$$
>  <structureNotation>
CCCCCCCCN1CCN(c2c(F)cc3c(=O)c(C(=O)O)cn(C4CC4)c3c2OC)CC1

>  <testedTarget>
Streptococcus pneumoniae

>  <resultValue>
32

$$$$

Now turn to the next molecule.
-- ask Please look up its MIC: `CCCCCCCN1CCN(c2c(F)cc3c(=O)c(C(=O)O)cn(C4CC4)c3c2OC)CC1`
-- reply 4
